- Tested on: Vero E6 infected with SARS-CoV-2
- protocol text: inhibition of SARS-CoV-2 cytopathic effect; higher = more antiviral protection, active = above 15
- conditions used: 100 nM; 48 h
value kind: inhibition of SARS-CoV-2 cytopathic effect (%)

compound | reading unit | numeric readout
COC(=O)Nc1nc2cc(Sc3ccccc3)ccc2[nH]1 | % | 0.21
O=[N+]([O-])/N=C1\NCCN1Cc1ccc(Cl)nc1 | % | 6.8
CC(C)CCC[C@@H](C)[C@H]1CC[C@H]2[C@@H]3CCC4=CC(=NO)CC[C@]4(C)[C@H]3CC[C@]12C | % | -0.33
Oc1ncnc2[nH]ncc12 | % | -11.2
Cc1cccc(-c2[nH]c(CNc3ccccc3F)nc2-c2ccc3ncnn3c2)n1 | % | 1.38
COc1cc2ncn(-c3cc(OCc4ccccc4C(F)(F)F)c(C(N)=O)s3)c2cc1OC | % | -7.65
C[C@H](Cc1ccc(O)c(O)c1)[C@@H](C)Cc1ccc(O)c(O)c1 | % | 2.75
CCCCCCCCCCC(=O)O[C@H]1CC[C@H]2[C@@H]3CCC4=CC(=O)CC[C@]4(C)[C@H]3CC[C@]12C [Testosterone (undecanoate)] | % | 0.37
Cc1c(F)cc(C(=O)NC2CC2)cc1-c1ccc(C(=O)NCC(C)(C)C)cn1 | % | -1.7
